conditions: in isobutyl acetate, 303.15 K
resultType: solubility (mole fraction)
Lab note: write the figure by itself, no unit.

-- ask Give its solubility (mole fraction) value. Item: CC(=O)O[C@]1(C(C)=O)CC[C@H]2[C@@H]3C[C@H](C)C4=CC(=O)CC[C@]4(C)[C@H]3CC[C@@]21C
-- reply 0.00574

* * *

settings: in ethanol, 293.15 K
resultType: solubility (mole fraction)
The answer should be written as a number, with no unit following it.

-- ask Return reported solubility (mole fraction); argument: CC(=O)O[C@]1(C(C)=O)CC[C@H]2[C@@H]3C[C@H](C)C4=CC(=O)CC[C@]4(C)[C@H]3CC[C@@]21C
-- reply 0.00106

* * *

details: in isobutyl acetate, 308.15 K
resultType: solubility (mole fraction)
// keep it numeric: no unit symbol after the value

-- ask Which value of solubility (mole fraction) has been reported for CC(=O)O[C@]1(C(C)=O)CC[C@H]2[C@@H]3C[C@H](C)C4=CC(=O)CC[C@]4(C)[C@H]3CC[C@@]21C in the records?
-- reply 0.00654

* * *

conditions: in methyl acetate, 298.15 K
resultType: solubility (mole fraction)
Lab note: record the figure alone, no unit after it.

-- ask So what's the measured solubility (mole fraction) for this one? CC(=O)O[C@]1(C(C)=O)CC[C@H]2[C@@H]3C[C@H](C)C4=CC(=O)CC[C@]4(C)[C@H]3CC[C@@]21C
-- reply 0.00649

* * *

conditions: in acetonitrile, 298.15 K
resultType: solubility (mole fraction)
Reply with the value as a number alone.

-- ask Sample CC(=O)O[C@]1(C(C)=O)CC[C@H]2[C@@H]3C[C@H](C)C4=CC(=O)CC[C@]4(C)[C@H]3CC[C@@]21C — what was its solubility (mole fraction)?
-- reply 0.0056

* * *

conditions: in ethyl acetate, 298.15 K
resultType: solubility (mole fraction)
In your answer, state the number alone without any accompanying words.

-- ask What measured solubility (mole fraction) goes with CC(=O)O[C@]1(C(C)=O)CC[C@H]2[C@@H]3C[C@H](C)C4=CC(=O)CC[C@]4(C)[C@H]3CC[C@@]21C ?
-- reply 0.00584

* * *

conditions: in methyl acetate, 323.15 K
resultType: solubility (mole fraction)
Keep the answer to the number alone.

-- ask Please look up its solubility (mole fraction): CC(=O)O[C@]1(C(C)=O)CC[C@H]2[C@@H]3C[C@H](C)C4=CC(=O)CC[C@]4(C)[C@H]3CC[C@@]21C
-- reply 0.0131

* * *

details: in n-propanol, 298.15 K
resultType: solubility (mole fraction)

-- ask Give its solubility (mole fraction) value. Item: CC(=O)O[C@]1(C(C)=O)CC[C@H]2[C@@H]3C[C@H](C)C4=CC(=O)CC[C@]4(C)[C@H]3CC[C@@]21C
-- reply 0.00188

* * *

conditions: in n-butyl acetate, 303.15 K
resultType: solubility (mole fraction)
The response must contain the number and no unit.

-- ask State the recorded solubility (mole fraction) for this entry: CC(=O)O[C@]1(C(C)=O)CC[C@H]2[C@@H]3C[C@H](C)C4=CC(=O)CC[C@]4(C)[C@H]3CC[C@@]21C
-- reply 0.00622

* * *

details: in n-propanol, 293.15 K
resultType: solubility (mole fraction)
Give a plain numeric answer without units written out.

-- ask Recorded solubility (mole fraction) of CC(=O)O[C@]1(C(C)=O)CC[C@H]2[C@@H]3C[C@H](C)C4=CC(=O)CC[C@]4(C)[C@H]3CC[C@@]21C , please.
-- reply 0.00148
